# Tested on: NCI-H295R
# Test method notes: area under concentration-response curve (viability) (AUC (a.u.)); higher = less active
# Condition details: 48 h
Measurement name: area under concentration-response curve
A bare number is all that is needed in reply.

CN[C@H]1CC[C@@H](c2ccc(Cl)c(Cl)c2)c2ccccc21 : 394
COC(=O)CCC1=C(C)C2=CC3=NC(=CC4=C(C)C(=C([NH]4)C=C\5N=C(C=C1[NH]2)\C(=C5C)CCC(O)=O)C=C)\C6=C\C=C(/[C@@H](C(=O)OC)[C@@]36C)C(=O)OC : 462
CC(C)(C)C(=O)Oc1ccc([S+](=O)([O-])Nc2ccccc2C(=O)NCC(=O)O)cc1 : 348
CC[S+](=O)([O-])c1cccc(-c2cc(C(=O)NC3CCN(C)CC3)c(C)c3[nH]c4ncc(C)cc4c23)c1 : 545

Exercise: Record request: area under concentration-response curve value, item `CN(C)CCOC(c1ccccc1)c1ccccc1`
Solution: 527

Exercise: Also `Cc1ccc2c(=O)c3cccc(CC(=O)O)c3oc2c1C` ?
Solution: 486

Exercise: Also `CC/1=C/2C[C@H]3C(=C)CCC[C@]3(C)/C=C2OC1=O` ?
Solution: 524

Exercise: Also `CN(C)CCc1c[nH]c2ccc(C[S+](=O)([O-])N3CCCC3)cc12` ?
Solution: 513

Exercise: Also `N#C[C@@H]1C[C@@H]2C[C@@H]2N1C(=O)[C@@H](N)C12CC3CC(CC(O)(C3)C1)C2` ?
Solution: 517

----------
Reported area under concentration-response curve values are given for each entry in this list.
# Test system: CU-ACC1
# Test method notes: area under concentration-response curve (viability) (AUC (a.u.)); higher = less active
# Condition details: 48 h

Known results for compounds:
O=C(NC1CCOCC1)c1ccc(-c2cc(-c3c[nH]nc3-c3ccccn3)ccn2)cc1 : 429
COc1cc(C(=O)NC2CCN(C)CC2)ccc1Nc1ncc2c(n1)N(C1CCCC1)CCC(=O)N2C(C)C : 504
CC(C)(C)NC(=O)Nc1cccc(Nc2ncc(F)c(NC(C)(C)CO)n2)c1 : 525
COCCN1CCN(Cc2ccc(-c3n[nH]c4c3C(=O)c3c(NC(=O)NN5CCOCC5)cccc3-4)cc2)CC1 : 301
CC(C)NCCCn1c(Sc2cc(Cl)cc(Cl)c2)nc2c(N)ncnc21 : 511

Let us examine a further case.
Exercise: Record request: area under concentration-response curve value, item `C[C@@H]1COCCN1c1cc(-c2ccnn2C)c2ccnc(-c3ccn[nH]3)c2n1`
Solution: 388

----------
# Test system: CU-ACC1
# Test method notes: area under concentration-response curve (viability) (AUC (a.u.)); higher = less active
# Condition details: 48 h
// label = y if area under concentration-response curve is not less than 500, otherwise n

Worked cases, answers included:
CCc1nc(C(N)=O)c(Nc2ccc(N3CCC(N4CCN(C)CC4)CC3)c(OC)c2)nc1NC1CCOCC1 : y
O=C(O)c1cc(O)c2c(c1)C(=O)c1cccc(O)c1C2=O : y
C[C@H](CCC(=O)O)[C@H]1CCC2C3C[C@H](O)[C@@H]4C[C@H](O)CC[C@]4(C)C3CC[C@@]21C (stereo partly drawn) : n
CC(=O)c1c(O)c(C)c(O)c(Cc2c(O)c3c(c(C(=O)/C=C/c4ccccc4)c2O)OC(C)(C)C=C3)c1O : n
COc1cccc2c1C(=O)c1c(O)c3c(c(O)c1C2=O)C[C@@](O)(C(=O)CO)C[C@@H]3O[C@H]1C[C@H](N)[C@@H](O)[C@H](C)O1 : n
C=C1C(=O)O[C@@H]2[C@H]3O[C@]3(C)CC/C=C(\C)CC[C@@H]12 : n

Moving on to another molecule below.
Exercise: Could you please find out whether `CNC(=O)[C@H](Cc1c[nH]c2ccccc12)NC(=O)[C@@H](CC(=O)NO)CC(C)C` has area under concentration-response curve that meets 500 or exceeds it?
Solution: n
